melting point overview
Kindly provide the numeric value in °C only, without the unit symbol.

Consider the worked cases shown below.
1. c1ccc2c(c1)ccc1c2ccc2c3ccccc3ccc21    368
2. COC(=O)[C@@H]1[C@H]2C[C@H]3c4[nH]c5ccccc5c4CCN3C[C@@H]2CC[C@@H]1O    251
3. CC[Si](F)(F)CC    -78.7
4. Cc1cc(C2(c3ccc(O)c(C)c3)OC(=O)c3ccccc32)ccc1O    223
5. O=C1CN=C(c2ccccc2Cl)c2cc([N+](=O)[O-])ccc2N1    238
6. O=[N+]([O-])c1ccc(Cl)c(C(F)(F)F)c1    22
7. Nc1ccc(Cl)cc1[N+](=O)[O-]    116
8. CCOC(=O)CCCCCCCC(=O)OCC    -18.5
9. O=[N+]([O-])c1cccc(F)c1    41
10. O=[N+]([O-])c1cc[n+]([O-])cc1    160

Record summary for OCC(O)CO : reported melting point = 18.2

Lab book: melting point of CCc1cccc(O)c1 noted as -4

Input CC(=O)Nc1cccc([N+](=O)[O-])c1 . Output melting point: 155
